- Tested on: NCI-H23 lung
- Protocol summary: NCI-60 one-dose screen, 48 h (100 = growth as untreated, 0 = no growth, -100 = all killed)
- Measurement setup: 10 µM unless noted
Compounds without any hit were thinned out: in the full panel of roughly 83,000, 20% have a hit.
Given measured growth, output satisfied if it is greater than or equal to 80% and not satisfied if not.

Here's what some known entries look like.
Compound	Assayed target	Category
O=C1C(Cl)=C(N/N=c2/[nH][nH]/c(=N/NC3=C(Cl)C(=O)c4ccccc4C3=O)c3ccccc23)C(=O)c2ccccc21	NCI-H23 lung	satisfied
COc1cc(NC(C)CCCN)c2ncccc2c1Sc1ccc(Cl)cc1 (stereo not given)	NCI-H23 lung	satisfied
Cc1cc(C)c([O-])c(CN(C)CCN(C)Cc2cc(C)cc(C)c2[O-])c1.O=C([O-])c1cccc(C(=O)[O-])n1.[Ti+4]	NCI-H23 lung	not satisfied
COc1ccc(C2C3=C(COC3=O)N(CCO)c3cc(OC)c(OC)cc32)cc1 (stereo not given)	NCI-H23 lung	satisfied

Now look at this entry.
Decide: growth of CCNC(=S)N(Cc1ccccc1)Cc1ccccc1 >= 80%?
satisfied

Source of measurements: PubChem BioAssay (NCI)
